# Tested On: F protein mutant RSV-DS-Cav1-A with a DS-Cav1 structure before fusion (respiratory syncytial virus subtype A, …, UniProt P03420 26-513)
Consider the following binders and their measured kon readings.
Metric Name: kon (M⁻¹ s⁻¹)

1) anti-RSV monoclonal antibody Palivizumab (Hu1129) (antibody, V domains shown) VH: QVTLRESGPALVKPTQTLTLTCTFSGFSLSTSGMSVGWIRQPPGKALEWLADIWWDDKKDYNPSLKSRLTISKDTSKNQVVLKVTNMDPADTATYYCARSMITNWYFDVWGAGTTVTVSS VL: DIQMTQSPSTLSASVGDRVTITCKCQLSVGYMHWYQQKPGKAPKLWIYDTSKLASGVPSRFSGSGSGTEFTLTISSLQPDDFATYYCFQGSGYPFTFGGGTKLEIK    31600
2) anti-RSV monoclonal antibody Clesrovimab (RB1) (antibody, V domains shown) VH: EVQLVESGGGLVRPGRSLRLSCTVSGFSFDDSAMSWVRQAPGKGLEWISFIKSKTYGGTKEYAASVKGRFTISRDDSKNIAYLQMNSLKTEDTAVYYCTRGAPYGGNSDYYYGLDVWGQGTTVTVSS VL: DIQMTQSPSSLSASVGDRVTITCRTSQDVRGALAWYQQKPGKAPKLLIFDASSLETGVPSRFSGSGSGTVFTLTISSLQPEDFAAYYCQQFLDFPFTFGQGTRLEIK    20000
3) anti-RSV monoclonal antibody Nirsevimab (MEDI8897) (antibody, V domains shown) VH: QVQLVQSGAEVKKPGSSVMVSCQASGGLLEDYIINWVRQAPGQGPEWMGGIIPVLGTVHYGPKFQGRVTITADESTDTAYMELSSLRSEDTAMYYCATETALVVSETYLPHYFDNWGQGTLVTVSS VL: DIQMTQSPSSLSAAVGDRVTITCQASQDIVNYLNWYQQKPGKAPKLLIYVASNLETGVPSRFSGSGSGTDFSLTISSLQPEDVATYYCQQYDNLPLTFGGGTKVEIK    31500

Value source: patent US20250388652A1
